Source listed as the supplement of paper PMC9732359.

- protocol.description: protein stability index of a GFP-peptide fusion (yeast GPS) (PSI 1-4); higher = more stable; sorted into four equal gates, so the index is relative within each strain
- condition.context: pdr5∆
The label depends only on protein stability index: true (1) if it is at least 3, false (0) if it is smaller.

Q) Is reported protein stability index greater than or equal to 3 here: RFKSQFLYVLIPAGIYW [QCR8]
A) false (0)

Q) Input EKLVSDLRLIKVPQQAA [SMC1]
A) true (1)

Q) Input INFKSREAIRPGHEMED [AAR2]
A) true (1)

Q) Input IRAHQTELTHHLLPRNE [QCR7]
A) true (1)

Q) Input YLYCLDNNITEMLEENF [YCG1]
A) false (0)

Q) Input TSLKCLVNRKPIPFEFQ [SNF2]
A) false (0)

Q) Input TAILQRQLQYETLGDIL [ECM29]
A) true (1)

Q) Input SSFEENNDLESVSMLLQ [RRI2]
A) true (1)

Q) Input GRNLGRIGTIVHKERHD [RPS4A]
A) false (0)

Q) Input KPKNTKENLSKSSWRQE [SIR4]
A) false (0)

Q) Input PISAVLRGCKFLQSVDI [GRR1]
A) false (0)

Q) Input YPNSSKLKRNSDRREHD [LIN1]
A) true (1)

Q) Input TPESVKPANASHAIRLG [RGR1]
A) false (0)

Q) Input LLFFNFSHSLTTILSFS [NUT1]
A) false (0)

Q) Input KLYDKTENDIKALQSIG [RPT4]
A) false (0)

Q) Input ARGLTATGKKSRGINKG [RPL15A]
A) true (1)

Q) Input NMKVTILHGSKSQEQRE [PRP28]
A) true (1)

Q) Input SASDALKGRVVEVCLAD [RPS1A]
A) false (0)

Q) Input VNGAKNLVVSGPPQSLY [FAS1]
A) false (0)

Q) Input IDIINKLILHAIHIFES [YML103C/NUP188]
A) false (0)

Q) Input GDKDTRADIVRNIILEA [ISW2]
A) false (0)

Q) Input SDAQSNLGSNVRNSFPL [REC8]
A) true (1)

Q) Input CSIEPIAAKLINSGLYS [YML103C/NUP188]
A) false (0)

Q) Input AALDLSHTQNIGHLIKT [SMC2]
A) false (0)

Q) Input QLCQITCQILESGEDEA [RRP46]
A) false (0)

Q) Input LGLFIHKISFSGTKSEV [YJL039C/NUP192]
A) false (0)

Q) Input LLQVNKTFCEDPFSDVD [GRR1]
A) true (1)

Q) Input RSKSSHKNERRVLEIQT [SKI6]
A) true (1)

Q) Input STKVENSAIIQNLRKEL [YIL149C/MLP2]
A) false (0)

Q) Input QYMEELADDDEERFSEL [RPL5]
A) false (0)

Q) Input YSLRLINKEIFHHWLVE [SRB8]
A) false (0)

Q) Input NLEFNYTKPYPNFEASF [SMC2]
A) false (0)

Q) Input IPLNRLSLDSDVKFPSN [SMC3]
A) false (0)

Q) Input KPYSGKLLKVCLTMFED [ECM29]
A) false (0)

Q) Input KKVGITGKYGVRYGSSL [RPL43A]
A) true (1)

Q) Input VSNPLIQRFFALHYLVP [COB]
A) false (0)

Q) Input SNQLISNYAASNSMDRS [SWI1]
A) true (1)

Q) Input LMRSCFYLMVSSLSFGP [YJL039C/NUP192]
A) false (0)

Q) Input IKVTVQLKIQNRQAAAS [RPL12A]
A) false (0)

Q) Input NKLRQQAIAKNNPQVVN [SNF5]
A) false (0)

Q) Input FDEKTIEEMLEIISGYA [RPC17]
A) false (0)

Q) Input RTQFGGGKSVGFGLVYN [RPS24A]
A) false (0)

Q) Input EEEMAPYYKYLCEEYLV [RPN7]
A) false (0)

Q) Input EARLFNIWGTVRTNRFD [ECM29]
A) false (0)

Q) Input QQQMANNNGNPGTTSTG [GAL11]
A) true (1)

Q) Input HYVSTSKISQMAQNKTH [YLR018C/POM34]
A) false (0)

Q) Input DEEGIFSRFVDQFIRHV [YCG1]
A) false (0)

Q) Input KCTAEGIKVSLLGIFDD [RPC25]
A) false (0)

Q) Input LNLEQVTLNKYCSGNIY [YJL039C/NUP192]
A) false (0)

Q) Input VARIYASFNDTFVHVTD [RPS14A]
A) false (0)

Q) Input IQHVGMINGRKLIKFET [FAS1]
A) false (0)

Q) Input TKIKDAEEDSLLSGEDL [YJL039C/NUP192]
A) true (1)
